The entries below come with measured EC50 of tesaglitazar for recruitment values attached.
- test-system: T1, GST–PPARα fusion protein (purified ligand binding domain of PPARα)
- T1 sequence (Q07869 whole entry, species assumed, looked up): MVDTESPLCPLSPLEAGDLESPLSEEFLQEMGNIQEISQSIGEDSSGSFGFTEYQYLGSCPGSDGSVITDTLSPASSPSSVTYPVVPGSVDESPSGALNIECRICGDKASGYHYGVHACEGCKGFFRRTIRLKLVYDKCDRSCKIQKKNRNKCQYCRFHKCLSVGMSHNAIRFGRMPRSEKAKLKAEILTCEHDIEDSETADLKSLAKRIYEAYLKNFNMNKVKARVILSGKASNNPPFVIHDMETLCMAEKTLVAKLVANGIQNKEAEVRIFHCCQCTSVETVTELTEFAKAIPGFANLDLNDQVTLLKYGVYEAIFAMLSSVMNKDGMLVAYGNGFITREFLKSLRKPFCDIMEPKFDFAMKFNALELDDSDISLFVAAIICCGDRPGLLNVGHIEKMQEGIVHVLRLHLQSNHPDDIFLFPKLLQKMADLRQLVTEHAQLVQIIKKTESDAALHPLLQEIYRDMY
- experiment: FRET or BRET; homogeneous TR-FRET as a1, 12-concentration dose–response of tesaglitazar; the EC50 is of the compound; delta ratio in % of the reference compound at 10 μM (RO4899100 for PPARα, edaglitazone for PPARγ)
Where no end group is shown, it is not given here. The star is where a group is joined. Biotin = O=C1N[C@H]2[C@H](CS[C@H]2CCCCC(=O)*)N1; Ahx = NCCCCCC(=O)O
experimental-endpoint: EC50 of tesaglitazar for recruitment (nM)

{"binder": "{Biotin-Ahx}-LDASKKKESKDHQLLRYLLDKDEKD (source: synthetic peptide (Jerini or Biosynthan, Berlin)) [SRC1_M3 cofactor peptide (steroid receptor co-activator 1, motif 3)]", "experimental-endpoint": "EC50 of tesaglitazar for recruitment", "obs-value": 111}
{"binder": "{Biotin-Ahx}-PKKENNALLRYLLDRDDPSDV (source: synthetic peptide (Jerini or Biosynthan, Berlin)) [RAC3_M3 cofactor peptide (receptor-associated co-activator 3, motif 3)]", "experimental-endpoint": "EC50 of tesaglitazar for recruitment", "obs-value": 941}
{"binder": "{Biotin-Ahx}-STHGTSLKEKHKILHRLLQDS [TIF2_M2 cofactor peptide (transcriptional intermediary factor 2, motif 2)]", "experimental-endpoint": "EC50 of tesaglitazar for recruitment", "obs-value": 182}
{"binder": "{Biotin-Ahx}-DSKYSQTSHKLVQLLTTTAEQQLRH (source: synthetic peptide (Jerini or Biosynthan, Berlin)) [SRC1_M1 cofactor peptide (steroid receptor co-activator 1, motif 1)]", "experimental-endpoint": "EC50 of tesaglitazar for recruitment", "obs-value": 427}
{"binder": "{Biotin-Ahx}-SRLHDSKGQTKLLQLLTTKSD (transcriptional intermediary factor 2 (TIF2), motif 1, residues 630-650; source: synthetic peptide (Jerini or Biosynthan, Berlin)) [TIF2_M1 cofactor peptide (transcriptional intermediary factor 2, motif 1)]", "experimental-endpoint": "EC50 of tesaglitazar for recruitment", "obs-value": 326}
{"binder": "{Biotin-Ahx}-SPKKKENALLRYLLDKDDTK [TIF2_M3 cofactor peptide (transcriptional intermediary factor 2, motif 3)]", "experimental-endpoint": "EC50 of tesaglitazar for recruitment", "obs-value": 377}
